target: full-length P. pyralis luciferase (Photinus pyralis, UniProt P08659, K549A/L550V/N119G/N50D/S548I); format: cell-based; settings: CC_NCI screening; full-length luciferase counter-screen; normalized to on-plate 0.3% DMSO controls
Sequence (P08659 whole entry N50D/N119G/S548I/K549A/L550V, looked up): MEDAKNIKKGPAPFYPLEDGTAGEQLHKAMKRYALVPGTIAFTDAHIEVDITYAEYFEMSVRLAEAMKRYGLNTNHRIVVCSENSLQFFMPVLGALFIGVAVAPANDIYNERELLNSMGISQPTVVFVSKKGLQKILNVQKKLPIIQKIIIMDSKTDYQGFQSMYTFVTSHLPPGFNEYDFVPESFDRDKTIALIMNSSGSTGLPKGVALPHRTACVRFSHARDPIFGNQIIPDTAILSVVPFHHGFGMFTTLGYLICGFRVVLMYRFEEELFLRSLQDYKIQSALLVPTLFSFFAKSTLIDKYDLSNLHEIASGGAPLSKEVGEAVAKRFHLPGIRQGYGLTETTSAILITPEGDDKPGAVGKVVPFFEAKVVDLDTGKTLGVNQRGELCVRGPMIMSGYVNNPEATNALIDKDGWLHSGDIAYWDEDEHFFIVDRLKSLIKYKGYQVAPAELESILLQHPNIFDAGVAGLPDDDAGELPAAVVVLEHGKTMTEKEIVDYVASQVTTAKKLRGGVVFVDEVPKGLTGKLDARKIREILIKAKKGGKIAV
Where a name gives a salt, the structure may show the parent alone.
Labels assigned by Luciferase Assay Z-score range: A (below -2), B (-2 to below -0.5), C (-0.5 or more)

Study these solved cases before continuing.
* C#Cc1cccc(Nc2ncnc3cc(OCCOC)c(OCCOC)cc23)c1 [Erlotinib hydrochloride] | A
* C[C@]12O[C@H](C[C@]1(O)CO)n1c3ccccc3c3c4c(c5c6ccccc6n2c5c31)CNC4=O [Lestaurtinib, reference compound] | B
* NC(=O)c1ccc(I)c([N+](=O)[O-])c1 | C
* NC(=O)c1ccc(-c2nc(-c3ccc4c(c3)OCO4)c(-c3ccccn3)[nH]2)cc1 | B
* Cn1cc(C2=C(c3cn(C4CCN(Cc5ccccn5)CC4)c4ccccc34)C(=O)NC2=O)c2ccccc21 | B
* Cc1cn(-c2cc(NC(=O)c3ccc(C)c(Nc4nccc(-c5cccnc5)n4)c3)cc(C(F)(F)F)c2)cn1 [Nilotinib] | B

Hello team, could you let me know which band the following molecule falls into: O=C(NOCC1CC1)c1ccc(F)c(F)c1Nc1ccc(I)cc1Cl [CI 1040, reference compound]
C

Moving on to the next molecule: "O=C(/C=C/c1cccc(S(=O)(=O)Nc2ccccc2)c1)NO"
B

Again, but for "FC(F)c1nc2ccccc2n1-c1nc(N2CCOCC2)nc(N2CCOCC2)n1"
B

====

experiment: in vitro; details: human, Clone V cells
Counter-ions that a name gives are not always drawn.
measured_parameter: viability at 16 h, 30 µM (%)
Answers are plain numbers, in %.

Sample records with viability at 16 h, 30 µM:
* NCC(=O)CCC(=O)O [Aminolevulinic acid hydrochloride] | 102
* CCCCCOC(=O)Nc1nc(=O)n([C@@H]2O[C@H](C)[C@@H](O)[C@H]2O)cc1F [Capecitabine] | 107
* Nc1ccccc1NC(=O)c1ccc(CNc2nccc(-c3cccnc3)n2)cc1 [MGCD0103] | 104
* CN(Cc1cnc2nc(N)nc(N)c2n1)c1ccc(C(=O)N[C@@H](CCC(=O)O)C(=O)O)cc1 [Methotrexate] | 102
* C#Cc1cccc(Nc2ncnc3cc(OCCOC)c(OCCOC)cc23)c1 [ERLOTINIB] | 103

Batch lookup, viability at 16 h, 30 µM per entry.
1. Oc1cccc(-c2nc(N3CCOCC3)c3oc4ncccc4c3n2)c1 [PI-103]
2. Nc1ncn([C@H]2C[C@H](O)[C@@H](CO)O2)c(=O)n1 [Decitabine, reference compound]
3. CS(=O)(=O)c1ccc(C2=C(c3ccccc3)C(=O)OC2)cc1 [ROFECOXIB]

1: 119; 2: 106; 3: 109

====

target: full-length P. pyralis luciferase (Photinus pyralis, UniProt P08659, K549A/L550V/N119G/N50D/S548I); type: cell-based; settings: CC_NCI screening; normalized to on-plate 0.3% DMSO controls
Counter-ions that a name gives are not always drawn.
measured_parameter: Luciferase Assay Z-score (full-length luciferase counter-screen)
One number for each entry.

Completed entries (count: 3):
* CC(=O)O[C@@]12CO[C@@H]1C[C@H](O)[C@@]1(C)C(=O)[C@H](O)C3=C(C)[C@@H](OC(=O)[C@H](O)[C@@H](NC(=O)OC(C)(C)C)c4ccccc4)C[C@@](O)([C@@H](OC(=O)c4ccccc4)[C@H]21)C3(C)C [Docetaxel] | 0.20
* Sc1ncnc2nc[nH]c12 [Mercaptopurine] | 0.26
* Nc1ccn([C@@H]2O[C@H](CO)[C@@H](O)[C@@H]2O)c(=O)n1 [Cytarabine hydrochloride] | -0.80

Below are 4 compounds. Give each one its Luciferase Assay Z-score (full-length luciferase counter-screen).
1. Cc1cc(Nc2cc(N3CCN(C)CC3)nc(Sc3ccc(NC(=O)C4CC4)cc3)n2)[nH]n1 [TOZASERTIB]
2. CCCCCCCCc1ccc(CCC(N)(CO)CO)cc1 [Fingolimod]
3. C[C@@H](Oc1cc(-c2cnn(C3CCNCC3)c2)cnc1N)c1c(Cl)ccc(F)c1Cl [Crizotinib, reference compound]
4. Fc1ccc(Cl)cc1-c1nc(Nc2ccncc2)c2nccnc2n1 [SD 208]

1: -3.37; 2: -0.64; 3: -1.03; 4: -1.46

====

biological target: full-length P. pyralis luciferase (Photinus pyralis, UniProt P08659, K549A/L550V/N119G/N50D/S548I); assay type: cell-based; settings: CC_NCI screening; full-length luciferase counter-screen; normalized to on-plate 0.3% DMSO controls
Hi there, I'd appreciate the recorded Luciferase Assay Z-score for every entry that follows.
Numbers only.

These solved cases illustrate the format of a correct answer.
• C=CC(=O)Nc1cc2c(Nc3ccc(F)c(Cl)c3)ncnc2cc1OCCCN1CCOCC1 [CANERTINIB] = -6.32
• COc1cccc(-c2cc(=O)c3ccccc3o2)c1N [PD 98059] = -1.26
• Cc1cc(N2CCOCC2)cc2[nH]c(-c3c(NC[C@@H](O)c4cccc(Cl)c4)cc[nH]c3=O)nc12 [BMS-536924] = -0.80

Could you now consider this next compound?
Looking for the measured Luciferase Assay Z-score of CS(=O)(=O)c1ccc(C(=O)Nc2ccc(Cl)c(-c3ccccn3)c2)c(Cl)c1 [Vismodegib, reference compound] , can you help?
-1.16

====

Exercise: for every item that follows, state its recorded viability at 16 h, 30 µM.
assay: in vitro; conditions: human, Clone V cells
Reply with a number, then the unit it belongs to.

The cases that follow already have their viability at 16 h, 30 µM on record.
* CCCCCCCCc1ccc(CCC(N)(CO)CO)cc1 | 110%
* Oc1c2ccccc2c2c3c(cccc13)N=N2 | 109%

Now for another entry.
What value of viability at 16 h, 30 µM has been reported for the following compound? "CO[C@H]1C[C@@H]2CC[C@@H](C)[C@@](O)(O2)C(=O)C(=O)N2CCCC[C@H]2C(=O)O[C@H]([C@H](C)C[C@@H]2CC[C@@H](O)[C@H](OC)C2)CC(=O)[C@H](C)/C=C(\C)[C@@H](O)[C@@H](OC)C(=O)[C@H](C)C[C@H](C)/C=C/C=C/C=C/1C"
103%

====

Would you kindly list Luciferase Assay Z-score for each of these compounds?
molecular target: full-length P. pyralis luciferase (Photinus pyralis, UniProt P08659, K549A/L550V/N119G/N50D/S548I); type: cell-based; conditions: CC_NCI screening; full-length luciferase counter-screen; normalized to on-plate 0.3% DMSO controls
Structures can show the parent of a compound that is named as a salt.
Answers are plain numbers.

Required: Luciferase Assay Z-score, one value per compound below.
1. Oc1ncnc2[nH]ncc12
2. COc1cc(Nc2c(C#N)cnc3cc(OCCCN4CCN(C)CC4)c(OC)cc23)c(Cl)cc1Cl [BOSUTINIB]
3. CN1CCN(CCOc2cc(OC3CCOCC3)c3c(Nc4c(Cl)ccc5c4OCO5)ncnc3c2)CC1 [SARACATINIB]
4. CC[C@@]1(O)C(=O)OCc2c1cc1n(c2=O)Cc2cc3c(CN(C)C)c(O)ccc3nc2-1 [Topotecan hydrochloride]
5. C[C@]1(c2nc3c(C(N)=O)cccc3[nH]2)CCCN1
6. CC(C)(C)c1nc(-c2cccc(NS(=O)(=O)c3c(F)cccc3F)c2F)c(-c2ccnc(N)n2)s1.CS(=O)(=O)O [Dabrafenib mesylate]
7. CN(C)CC[C@H](CSc1ccccc1)Nc1ccc(S(=O)(=O)NC(=O)c2ccc(N3CCN(Cc4ccccc4-c4ccc(Cl)cc4)CC3)cc2)cc1[N+](=O)[O-]
8. CC[C@]1(O)C[C@H]2CN(CCc3c([nH]c4ccccc34)[C@@](C(=O)OC)(c3cc4c(cc3OC)N(C=O)[C@H]3[C@@](O)(C(=O)OC)[C@H](OC(C)=O)[C@]5(CC)C=CCN6CC[C@]43[C@@H]65)C2)C1 [Vincristine sulfate]

1: -0.39; 2: 1.05; 3: 1.02; 4: -1.45; 5: 0.67; 6: 0.06; 7: -0.58; 8: 1.24

Give me Luciferase Assay Z-score for each of these compounds, listed below.
1. CO[C@H]1C[C@@H]2CC[C@@H](C)[C@@](O)(O2)C(=O)C(=O)N2CCCC[C@H]2C(=O)O[C@H]([C@H](C)C[C@@H]2CC[C@@H](OCCO)[C@H](OC)C2)CC(=O)[C@H](C)/C=C(\C)[C@@H](O)[C@@H](OC)C(=O)[C@H](C)C[C@H](C)/C=C/C=C/C=C/1C
2. Cc1ccc(-c2cc(C(F)(F)F)nn2-c2ccc(S(N)(=O)=O)cc2)cc1

1. -3.48
2. -5.11

For each listed entry, give its Luciferase Assay Z-score.
1. Cn1cc(C2=C(c3ccc(Cl)cc3Cl)C(=O)NC2=O)c2ccccc21
2. C[C@@H](N)[C@H]1CC[C@H](C(=O)Nc2ccncc2)CC1

1. 0.01
2. -0.54
